- STUDY SYSTEM: D(1A) dopamine receptor (Homo sapiens)
- ASSAY NOTES: NVS_GPCR_hDRD1: NovaScreen (NVS) G Protein-Coupled Receptor Assay for human Dopamine Receptor D1 (DRD1) (AID 2283269)
Results filed as inconclusive are left out. The source made the active and inactive calls. How the source made its calls: active means hit-call score of the fitted dose curve at least 0.9, where 1 is the maximum; inconclusive means response in the unintended direction; inactive means score below 0.9.
# output must be one of label 1 (active), label 0 (inactive)

OCCC(O)CO (stereo not given) ... label 1

Lab log entry: Cc1ccc(S(=O)(=O)C(I)I)cc1 — outcome as called in the assay?
label 1

Field: outcome | Entry: Oc1ccc2c(c1)CCC2
label 0

State the result this test recorded for Oc1ccc(C2(c3ccc(O)c(C4CCCCC4)c3)CCCCC2)cc1C1CCCCC1 .
label 0

Outcome logged for CCN(CC)c1ccc(N=Nc2ccccc2)cc1 in this assay:
label 0
